Measured combination Emax accompanies every entry in the list below.
- Test system: PC-14 (Lung Adenocarcinoma)
- Procedure Text: combination Emax (second highest fraction inhibited in the dose matrix, 72 h); higher = more inhibition; extreme values may be limits of the assay
Output: the number by itself.

Sample records with combination Emax:
INSERT INTO assay_data (molecule, measured_number) VALUES
  ('NC1(C(=O)N[C@@H](CCO)c2ccc(Cl)cc2)CCN(c2ncnc3[nH]ccc23)CC1 [Capivasertib] + CC(C)n1c(=O)n(C)c2cnc3cc(F)c(-c4ccc(OCCCN5CCCCC5)nc4)cc3c21 [AZD1390] (first compound max 10 µM, 7x7, partner max 0.3 µM)', 0.392),
  ('COc1cc2c(cc1OCCCCCOc1cc3c(cc1OC)C(=O)N1C=C(C)C[C@H]1C=N3)N=C[C@@H]1CC(C)=CN1C2=O [SG3199] + O=C(c1cc(Cc2n[nH]c(=O)c3ccccc23)ccc1F)N1CCN(C(=O)C2CC2)CC1 [Olaparib] (first compound max 0.001 µM, 7x7, partner max 10 µM)', 0.179),
  ('COc1nnc2ccc(N3CCC(c4ccc(OCCN5CCN(C)C(=O)[C@H]5C)cc4)CC3)nn12 [AZD5153] + CCN(CCO)CCCOc1ccc2c(Nc3cc(CC(=O)Nc4cccc(F)c4)[nH]n3)ncnc2c1 [AZD2811] (first compound max 1 µM, 7x7, partner max 1 µM)', 0.5);

Okay, now this molecule:
Inquiry: Which combination Emax reading was recorded for the molecule CS(=O)(=O)CCNCc1ccc(-c2ccc3ncnc(Nc4ccc(OCc5cccc(F)c5)c(Cl)c4)c3c2)o1 [Lapatinib] + NC1(c2ccc(-c3nc4ccn5c(=O)[nH]nc5c4cc3-c3ccccc3)cc2)CCC1 [MK-2206] (first compound max 10 µM, 7x7, partner max 10 µM) ?
Reply text: 0.993

----------
- Tested on: Calu-6 (Non-Small Cell Lung Carcinoma);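 further: after 72 h of two-drug dosing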
- Procedure Text: Bliss excess, mean over the matrix (fraction); higher = more synergy
Observation Type: Bliss excess
Please give the numeric answer without any surrounding text.

// below: answered molecules
INSERT INTO results (molecule, measured_number) VALUES
  ('NC1(C(=O)N[C@@H](CCO)c2ccc(Cl)cc2)CCN(c2ncnc3[nH]ccc23)CC1 [Capivasertib] + Cn1cnc2c(F)c(Nc3ccc(Br)cc3Cl)c(C(=O)NOCCO)cc21 [Selumetinib] (first compound max 10 µM, 7x7, partner max 10 µM)', 0.0038),
  ('COc1cc2ncnc(Nc3ccc(F)c(Cl)c3)c2cc1OCCCN1CCOCC1 [Gefitinib] + CC(C)n1c(=O)n(C)c2cnc3cc(F)c(-c4ccc(OCCCN5CCCCC5)nc4)cc3c21 [AZD1390] (first compound max 10 µM, 7x7, partner max 0.3 µM)', -0.0556),
  ('COc1nnc2ccc(N3CCC(c4ccc(OCCN5CCN(C)C(=O)[C@H]5C)cc4)CC3)nn12 [AZD5153] + CN(CC[C@H](CSC1=CC=CC=C1)NC2=C(C=C(C=C2)S(=O)(=O)NC(=O)C3=CC=C(C=C3)N4CCC(CC4)[C@H](C5=CC=CC=C5C6=CC=C(C=C6)Cl)O)S(=O)(=O)C(F)(F)F)CCO [AZD4320] (first compound max 1 µM, 7x7, partner max 1 µM)', -0.0429),
  ('C[C@@H](c1ccc2nccn2c1)n1nnc2ncc(-c3cnn(C)c3)nc21 [Savolitinib] + Cc1c2c(nn1C)CSCc1cc(n(C)n1)CSc1cc(c3ccccc3c1)OCCCc1c(C(=O)O)n(C)c3c-2c(Cl)ccc13 [AZD5991] (first compound max 1 µM, 7x7, partner max 1 µM)', -0.0124),
  ('Cc1c2c(nn1C)CSCc1cc(n(C)n1)CSc1cc(c3ccccc3c1)OCCCc1c(C(=O)O)n(C)c3c-2c(Cl)ccc13 [AZD5991] + C=CCn1c(=O)c2cnc(Nc3ccc(N4CCN(C)CC4)cc3)nc2n1-c1cccc(C(C)(C)O)n1 [AZD1775] (first compound max 1 µM, partner max 1 µM)', -0.0963);

Inquiry: # query: Bliss excess of entry CN(CCO)CC[C@H](CSc1ccccc1)Nc1ccc(S(=O)(=O)NC(=O)c2ccc(N3CCC([C@@H](O)c4ccccc4-c4ccc(Cl)cc4)CC3)cc2)cc1S(=O)(=O)C(F)(F)F [AZD4320] + C=CCn1c(=O)c2cnc(Nc3ccc(N4CCN(C)CC4)cc3)nc2n1-c1cccc(C(C)(C)O)n1 [AZD1775] (first compound max 1 µM, partner max 1 µM)
Reply text: 0.0019

Inquiry: Name the recorded Bliss excess for CC(=O)c1c(C)c2cnc(Nc3ccc(N4CCNCC4)cn3)nc2n(C2CCCC2)c1=O [Palbociclib] + Cc1c2c(nn1C)CSCc1cc(n(C)n1)CSc1cc(c3ccccc3c1)OCCCc1c(C(=O)O)n(C)c3c-2c(Cl)ccc13 [AZD5991] (first compound max 10 µM, 7x7, partner max 1 µM) .
Reply text: -0.0227

Inquiry: May I ask what Bliss excess has been recorded for CC1(C)CCC(CN2CCN(c3ccc(C(=O)NS(=O)(=O)c4ccc(NCC5CCOCC5)c([N+](=O)[O-])c4)c(Oc4cnc5[nH]ccc5c4)c3)CC2)=C(c2ccc(Cl)cc2)C1 [Venetoclax] + CCN(CCO)CCCOc1ccc2c(Nc3cc(CC(=O)Nc4cccc(F)c4)[nH]n3)ncnc2c1 [AZD2811] (first compound max 1 µM, 7x7, partner max 1 µM) ?
Reply text: 0.0331
